Tgt: PCSK9 (Homo sapiens)
Sequence (Q8NBP7 153-692): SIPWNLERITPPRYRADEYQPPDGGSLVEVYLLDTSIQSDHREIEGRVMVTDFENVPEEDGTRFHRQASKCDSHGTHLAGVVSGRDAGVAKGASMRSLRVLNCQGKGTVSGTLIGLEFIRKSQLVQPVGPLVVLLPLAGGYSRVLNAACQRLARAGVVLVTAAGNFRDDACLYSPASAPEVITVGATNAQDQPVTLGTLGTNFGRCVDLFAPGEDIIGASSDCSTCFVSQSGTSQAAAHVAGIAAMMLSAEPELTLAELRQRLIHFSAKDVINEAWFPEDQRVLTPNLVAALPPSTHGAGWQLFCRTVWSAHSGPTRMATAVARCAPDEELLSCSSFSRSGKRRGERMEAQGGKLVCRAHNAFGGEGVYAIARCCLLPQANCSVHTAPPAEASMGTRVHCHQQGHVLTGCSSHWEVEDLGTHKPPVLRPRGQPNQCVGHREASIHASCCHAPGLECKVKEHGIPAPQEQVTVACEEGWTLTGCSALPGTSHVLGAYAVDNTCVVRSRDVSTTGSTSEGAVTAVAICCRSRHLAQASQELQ
Test details: PCSK9 Alexa FRET Standard assay (displacement of AlexaFluor647 tagged cyclic peptide Reagent A)
Assay type: binding
Condition description: 0.5 nM PCSK9, 20 nM AF cyclic peptide Reagent A
pIC50: −log10 of the molar value. Numbered stars: 1 amine (or outer) side, 2 acyl side, 3 side chain; on linkers, the order of the positions; unused ones are H or OH. Bridge positions count the residues as written; N and C are the ends. Square brackets hold non-standard residues; d marks the D form. Peptide text beside a SMILES is read from it. Trp(7-aza) = N[C@@H](Cc1c[nH]c2ncccc12)C(=O)O; mXylylene = c1cc(C[*:1])cc(C[*:2])c1; Tle = CC(C)(C)[C@H](N)C(=O)O; αMeV = CC(C)[C@](C)(N)C(=O)O; Iva = CC[C@](C)(N)C(=O)O; Nva = CCC[C@H](N)C(=O)O
Metric name: pIC50

Compound	pIC50
CCC[C@H](NC(C)=O)C(=O)N[C@H]1CSCc2cccc(c2)CSC[C@@H](C(N)=O)NC(=O)[C@H]([C@@H](C)O)NC(=O)[C@H](CCC)NC(=O)[C@H](Cc2ccc(O)cc2)NC(=O)[C@H](CCC(=O)O)NC(=O)[C@H](CCC)NC(=O)[C@H](C)NC(=O)[C@H]([C@@H](C)O)NC(=O)[C@H](Cc2cnc[nH]2)NC(=O)[C@H](Cc2ccc(O)cc2)NC(=O)[C@H](C(C)(C)C)NC1=O [Compound 230] (Ac-[Nva]C[Tle]YHTA[Nva]EY[Nva]TC-NH2; linker 2-13 via mXylylene)	4.00 to 4.30

Using the record for CC[C@]1(C)NC(=O)[C@H](Cc2c[nH]c3ncccc23)NC(=O)[C@H]([C@@H](C)O)NC(=O)[C@@H]2CCCN2C(=O)[C@H](Cc2ccc(O)cc2)NC(=O)[C@H](C(C)(C)C)NC(=O)[C@@H](NC(C)=O)CSCc2cccc(c2)CSC[C@@H](C(N)=O)NC(=O)[C@H]([C@@H](C)O)NC(=O)[C@](C)(C(C)C)NC(=O)[C@H](Cc2ccc(O)cc2)NC(=O)[C@H](C)NC1=O [Compound 182] (Ac-C[Tle]YPT[Trp(7-aza)][Iva]AY[αMeV]TC-NH2; linker 1-12 via mXylylene) , report its pIC50.
4.68 to 6.00
